target: Mitogen-activated protein kinase 14 (Homo sapiens, UniProt Q16539); also: in the data inactive means no Kd found up to 30 µM
Sequence (Q16539 whole entry): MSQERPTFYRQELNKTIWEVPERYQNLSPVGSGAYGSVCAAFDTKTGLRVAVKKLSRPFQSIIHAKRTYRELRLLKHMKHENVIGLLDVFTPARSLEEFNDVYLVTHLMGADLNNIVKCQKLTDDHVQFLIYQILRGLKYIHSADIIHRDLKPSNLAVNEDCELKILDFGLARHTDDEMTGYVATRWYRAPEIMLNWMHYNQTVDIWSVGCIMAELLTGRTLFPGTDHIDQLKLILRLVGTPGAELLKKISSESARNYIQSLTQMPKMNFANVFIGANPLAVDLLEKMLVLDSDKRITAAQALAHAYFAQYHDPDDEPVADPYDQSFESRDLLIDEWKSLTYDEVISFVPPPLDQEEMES
The source made the active and inactive calls.
Classes used: 1.0 = active, 0.0 = inactive

recordSmiles: Cc1c(Cn2c(C)nc3c(C(=O)O)cc(N4CCOCC4)cc32)cccc1C(F)(F)F
className: 0.0

recordSmiles: N#CCNC(=O)c1ccc(-c2ccnc(Nc3ccc(N4CCOCC4)cc3)n2)cc1
className: 0.0

recordSmiles: O[C@H]1CC[C@H](Nc2ncc3nc(Nc4c(F)cc(F)cc4F)n([C@H]4CCOC4)c3n2)CC1
className: 1.0

recordSmiles: CCOc1ccn(-c2ccc(F)cc2)c(=O)c1C(=O)Nc1ccc(Oc2ccnc(N)c2Cl)c(F)c1
className: 0.0

recordSmiles: COc1cc2ncnc3c2cc1OCCCCCN(C)Cc1ccc(Br)cc1N3
className: 0.0

====

target: TGF-beta receptor type-1 (Homo sapiens); also: in the data inactive means no Kd found up to 30 µM
Sequence (P36897 whole entry): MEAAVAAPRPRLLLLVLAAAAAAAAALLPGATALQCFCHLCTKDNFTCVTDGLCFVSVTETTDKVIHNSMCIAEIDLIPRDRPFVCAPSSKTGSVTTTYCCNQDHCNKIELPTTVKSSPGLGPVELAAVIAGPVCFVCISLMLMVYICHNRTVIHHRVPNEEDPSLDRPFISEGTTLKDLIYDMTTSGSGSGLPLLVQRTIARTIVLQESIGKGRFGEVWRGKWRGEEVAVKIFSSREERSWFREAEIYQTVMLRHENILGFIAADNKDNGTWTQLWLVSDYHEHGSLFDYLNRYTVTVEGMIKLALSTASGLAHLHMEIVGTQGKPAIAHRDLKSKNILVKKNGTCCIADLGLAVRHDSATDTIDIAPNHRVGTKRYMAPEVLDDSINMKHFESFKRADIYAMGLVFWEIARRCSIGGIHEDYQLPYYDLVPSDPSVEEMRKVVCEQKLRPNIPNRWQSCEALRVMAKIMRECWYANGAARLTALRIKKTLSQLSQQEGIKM
Active and inactive are the calls of the source.
Outcomes: active, inactive

molecule: C[C@]1(O)C[C@@H](c2nc(-c3ccc4ccc(-c5ccccc5)nc4c3)c3c(N)nccn32)C1 [LINSITINIB]
className: inactive
--
molecule: O=C(NOC[C@H](O)CO)c1ccc(F)c(F)c1Nc1ccc(I)cc1F [MIRDAMETINIB]
className: inactive
--
molecule: COc1cccc2cc(-c3nc([C@H]4CC[C@H](C(=O)O)CC4)n4ncnc(N)c34)[nH]c12 [OSI-027]
className: active
--
molecule: Cc1c(NC(=O)OC[C@@H]2COCCN2)cn2ncnc(Nc3ccc4c(cnn4Cc4cccc(F)c4)c3)c12 [AC-480]
className: inactive
--
molecule: COc1cc(Nc2ncc(F)c(Nc3ccc4c(n3)N(COP(=O)(O)O)C(=O)C(C)(C)O4)n2)cc(OC)c1OC [FOSTAMATINIB]
className: inactive
--
molecule: C=CCn1c(=O)c2cnc(Nc3ccc(N4CCN(C)CC4)cc3)nc2n1-c1cccc(C(C)(C)O)n1 [ADAVOSERTIB]
className: inactive
--
molecule: CCOc1ccn(-c2ccc(F)cc2)c(=O)c1C(=O)Nc1ccc(Oc2ccnc(N)c2Cl)c(F)c1 [BMS-777607]
className: inactive
--
molecule: CCN1CCN(Cc2ccc(Nc3ncc(F)c(-c4cc(F)c5nc(C)n(C(C)C)c5c4)n3)nc2)CC1 [ABEMACICLIB]
className: inactive
--
molecule: C#Cc1cccc(Nc2ncnc3cc4c(cc23)OCCOCCOCCO4)c1 [ICOTINIB]
className: inactive
--
molecule: CNC(=O)c1ccc(Nc2ncc(C(F)(F)F)c(NCc3nccnc3N(C)S(C)(=O)=O)n2)cc1 [DEFACTINIB]
className: inactive
--
molecule: O=C(Nc1ccc(OC(F)(F)F)cc1)c1sccc1NCc1ccnc2ccccc12 [OSI-930]
className: inactive
--
molecule: COc1ccc2c(OCc3nnc4ccc(-c5ccccc5)nn34)ccnc2c1 [AMG-208]
className: inactive
--
molecule: COCCN1CCN(Cc2ccc(-c3n[nH]c4c3C(=O)c3c(NC(=O)NN5CCOCC5)cccc3-4)cc2)CC1 [RGB-286638]
className: inactive
--
molecule: CN(c1ncccc1CNc1nc(Nc2ccc3c(c2)CC(=O)N3)ncc1C(F)(F)F)S(C)(=O)=O [PF-00562271]
className: inactive
--
molecule: CNC(=O)c1cc(COc2nnc(Nc3ccc(Cl)cc3)c3ccoc23)ccn1 [TELATINIB]
className: inactive
--
molecule: O=C(O)c1ccc2c(c1)nc(Nc1cccc(Cl)c1)c1ccncc12 [SILMITASERTIB]
className: inactive

====

target: Serine/threonine-protein kinase LATS1 (Homo sapiens, UniProt O95835); also: in the data inactive means no Kd found up to 30 µM
Sequence (O95835 whole entry): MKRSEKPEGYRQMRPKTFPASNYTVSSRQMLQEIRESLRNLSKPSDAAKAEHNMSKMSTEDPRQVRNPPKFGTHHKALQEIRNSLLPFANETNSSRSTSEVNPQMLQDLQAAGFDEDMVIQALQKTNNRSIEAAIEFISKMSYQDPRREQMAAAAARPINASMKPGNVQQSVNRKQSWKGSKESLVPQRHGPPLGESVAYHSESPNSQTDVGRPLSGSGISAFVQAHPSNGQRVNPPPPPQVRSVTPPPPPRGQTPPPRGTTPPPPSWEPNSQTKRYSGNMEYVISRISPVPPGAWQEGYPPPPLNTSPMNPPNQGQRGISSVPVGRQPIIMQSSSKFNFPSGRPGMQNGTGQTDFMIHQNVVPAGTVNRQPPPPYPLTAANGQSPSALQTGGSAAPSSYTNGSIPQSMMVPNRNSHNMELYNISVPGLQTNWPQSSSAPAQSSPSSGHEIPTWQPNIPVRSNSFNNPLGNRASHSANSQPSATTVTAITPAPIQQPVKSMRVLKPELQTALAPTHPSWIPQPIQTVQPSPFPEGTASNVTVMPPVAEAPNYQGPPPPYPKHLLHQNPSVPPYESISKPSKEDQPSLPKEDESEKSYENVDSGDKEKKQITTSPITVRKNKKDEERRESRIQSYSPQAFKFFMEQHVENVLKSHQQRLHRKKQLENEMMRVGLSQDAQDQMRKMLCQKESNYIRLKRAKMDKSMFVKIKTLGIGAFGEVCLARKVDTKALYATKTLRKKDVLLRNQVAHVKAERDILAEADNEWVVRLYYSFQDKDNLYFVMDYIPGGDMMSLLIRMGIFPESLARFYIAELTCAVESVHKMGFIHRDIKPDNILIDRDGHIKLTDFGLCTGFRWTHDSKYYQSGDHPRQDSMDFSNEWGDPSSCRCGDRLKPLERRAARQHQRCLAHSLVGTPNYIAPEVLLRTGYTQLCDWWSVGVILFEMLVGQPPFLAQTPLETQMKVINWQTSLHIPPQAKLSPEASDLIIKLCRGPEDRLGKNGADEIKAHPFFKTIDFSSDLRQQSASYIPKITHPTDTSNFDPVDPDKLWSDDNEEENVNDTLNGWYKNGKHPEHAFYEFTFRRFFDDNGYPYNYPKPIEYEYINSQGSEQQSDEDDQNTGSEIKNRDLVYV
The source made the active and inactive calls.
Possible outcomes: active, inactive

compound: COc1cccc(Nc2ncnn3ccc(CN4CC[C@@H](N)[C@H](O)C4)c23)c1
className: inactive
//
compound: CN(c1ncccc1CNc1nc(Nc2ccc3c(c2)CC(=O)N3)ncc1C(F)(F)F)S(C)(=O)=O
className: inactive
//
compound: COc1cc2ncnc(Nc3ccc(F)c(Cl)c3)c2cc1NC(=O)/C=C/CN1CCCCC1 [DACOMITINIB ANHYDROUS]
className: inactive
//
compound: C=CCN(/C=C1/C(=O)O[C@H](COC)[C@@]2(C)C1=C(O)C(=O)C1=C2[C@H](OC(C)=O)C[C@]2(C)C(=O)CC[C@@H]12)CC=C
className: inactive
//
compound: COc1ccc2c(OCc3nnc4ccc(-c5ccccc5)nn34)ccnc2c1
className: inactive
//
compound: COCCN1CCN(Cc2ccc(-c3n[nH]c4c3C(=O)c3c(NC(=O)NN5CCOCC5)cccc3-4)cc2)CC1
className: inactive
//
compound: CN1CCN(c2nc(C3=C(c4c[nH]c5ccccc45)C(=O)NC3=O)c3ccccc3n2)CC1
className: inactive
//
compound: CCN1CCN(Cc2ccc(Nc3ncc(F)c(-c4cc(F)c5nc(C)n(C(C)C)c5c4)n3)nc2)CC1
className: inactive
//
compound: NC(=O)c1ccc(N(C(N)=O)c2c(F)cccc2F)nc1-c1ccc(F)cc1F
className: inactive
//
compound: C#Cc1cccc(Nc2ncnc3cc4c(cc23)OCCOCCOCCO4)c1
className: inactive
//
compound: CC1(COc2ccc3c(c2)ncn3-c2ccc3cccc(N4CCC(N)CC4)c3n2)COC1
className: active
//
compound: NC[C@@](O)(c1ccc(Cl)cc1)c1ccc(-c2cn[nH]c2)cc1
className: active
//
compound: Cc1cc(C(=O)Nc2cc(Oc3ccc4nc(NC(=O)C5CC5)cn4n3)ccc2C)n(C)n1
className: inactive
//
compound: COc1cc2ncnc(Nc3ccc(O)cc3)c2cc1OC
className: inactive
//
compound: C=CC(=O)Nc1cc(Nc2nccc(-c3cn(C)c4ccccc34)n2)c(OC)cc1N(C)CCN(C)C
className: inactive
//
compound: CCN(CCCOc1ccc2c(Nc3cc(CC(=O)Nc4cccc(F)c4)n[nH]3)ncnc2c1)CCOP(=O)(O)O
className: inactive

====

Activity calls are given as the source filed them.
Notes on Kd obtained with Serine/threonine-protein kinase MRCK beta (Homo sapiens).
Sequence (Q9Y5S2 whole entry): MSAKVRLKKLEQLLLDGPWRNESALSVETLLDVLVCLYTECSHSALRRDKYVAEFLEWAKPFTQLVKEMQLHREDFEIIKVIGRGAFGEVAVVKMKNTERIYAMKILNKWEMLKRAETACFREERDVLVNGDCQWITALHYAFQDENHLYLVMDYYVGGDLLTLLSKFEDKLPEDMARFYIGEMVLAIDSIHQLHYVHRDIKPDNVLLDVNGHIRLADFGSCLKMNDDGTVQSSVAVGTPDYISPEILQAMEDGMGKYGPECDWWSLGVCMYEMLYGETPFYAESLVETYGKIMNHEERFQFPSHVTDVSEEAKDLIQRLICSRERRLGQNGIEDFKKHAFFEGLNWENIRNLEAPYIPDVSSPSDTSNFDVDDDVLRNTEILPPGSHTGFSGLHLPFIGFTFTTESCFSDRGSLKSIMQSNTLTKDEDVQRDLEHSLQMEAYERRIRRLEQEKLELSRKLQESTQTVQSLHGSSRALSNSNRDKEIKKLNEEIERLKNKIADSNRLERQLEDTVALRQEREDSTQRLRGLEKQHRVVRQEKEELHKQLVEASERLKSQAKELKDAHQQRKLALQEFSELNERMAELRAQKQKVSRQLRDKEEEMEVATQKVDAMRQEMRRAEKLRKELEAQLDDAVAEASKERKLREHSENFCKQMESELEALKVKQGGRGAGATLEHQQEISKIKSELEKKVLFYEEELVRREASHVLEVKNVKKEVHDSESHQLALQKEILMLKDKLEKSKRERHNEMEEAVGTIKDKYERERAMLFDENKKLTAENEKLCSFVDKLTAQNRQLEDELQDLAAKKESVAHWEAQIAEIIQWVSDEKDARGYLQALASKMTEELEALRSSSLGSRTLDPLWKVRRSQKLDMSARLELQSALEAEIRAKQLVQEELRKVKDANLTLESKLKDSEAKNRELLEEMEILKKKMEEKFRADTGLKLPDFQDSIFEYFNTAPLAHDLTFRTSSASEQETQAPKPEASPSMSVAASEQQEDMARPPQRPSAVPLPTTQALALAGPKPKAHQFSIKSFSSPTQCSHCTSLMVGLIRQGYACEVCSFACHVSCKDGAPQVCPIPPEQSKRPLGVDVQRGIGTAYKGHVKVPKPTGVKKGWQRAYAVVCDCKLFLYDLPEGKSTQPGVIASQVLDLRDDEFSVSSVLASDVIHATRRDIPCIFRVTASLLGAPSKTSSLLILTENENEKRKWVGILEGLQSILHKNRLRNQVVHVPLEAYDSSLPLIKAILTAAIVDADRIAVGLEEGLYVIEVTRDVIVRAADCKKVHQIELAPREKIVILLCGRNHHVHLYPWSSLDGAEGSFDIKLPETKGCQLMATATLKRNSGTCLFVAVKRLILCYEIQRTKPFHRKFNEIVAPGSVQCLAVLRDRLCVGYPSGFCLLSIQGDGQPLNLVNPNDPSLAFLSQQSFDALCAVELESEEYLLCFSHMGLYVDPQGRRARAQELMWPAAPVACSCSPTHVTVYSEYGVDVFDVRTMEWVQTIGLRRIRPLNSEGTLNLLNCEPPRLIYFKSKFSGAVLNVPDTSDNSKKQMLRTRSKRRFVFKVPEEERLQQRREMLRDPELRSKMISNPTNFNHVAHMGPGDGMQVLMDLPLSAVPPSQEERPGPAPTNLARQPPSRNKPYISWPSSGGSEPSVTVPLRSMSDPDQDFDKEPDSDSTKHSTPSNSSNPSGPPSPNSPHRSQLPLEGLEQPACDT

recordSmiles: COc1cc2ncnc(Nc3ccc(O)cc3)c2cc1OC
Kd: > 30 µM (inactive)

recordSmiles: CNC(=O)c1cccc(-c2ccc3c(N4CCOC[C@@H]4C)nc(N4CCOC[C@@H]4C)nc3n2)c1
Kd: > 30 µM (inactive)

recordSmiles: O=C(O)c1ccc2c(c1)nc(Nc1cccc(Cl)c1)c1ccncc12
Kd: > 30 µM (inactive)

recordSmiles: CC[C@@](C)(Nc1ccnc(-c2c[nH]c3ncccc23)n1)C(=O)NCC(F)(F)F
Kd: 0.116 µM (active)

recordSmiles: COc1cccc(Nc2ncnn3ccc(CN4CC[C@@H](N)[C@H](O)C4)c23)c1
Kd: > 30 µM (inactive)

recordSmiles: COc1ccc2c(OCc3nnc4ccc(-c5ccccc5)nn34)ccnc2c1
Kd: > 30 µM (inactive)

recordSmiles: C[C@]1(O)C[C@@H](c2nc(-c3ccc4ccc(-c5ccccc5)nc4c3)c3c(N)nccn32)C1
Kd: > 30 µM (inactive)

recordSmiles: COCCN1CCN(Cc2ccc(-c3n[nH]c4c3C(=O)c3c(NC(=O)NN5CCOCC5)cccc3-4)cc2)CC1
Kd: 1.02 µM (active)

====

molecular target: Glycogen phosphorylase, liver form (Homo sapiens); assay type: subcellular, K-562, COLO 205, SK-N-BE(2) and MV-4-11, Cell lysate; details: read-out: Kd apparent; also: in the data inactive means no Kd found up to 30 µM
Sequence (P06737 whole entry): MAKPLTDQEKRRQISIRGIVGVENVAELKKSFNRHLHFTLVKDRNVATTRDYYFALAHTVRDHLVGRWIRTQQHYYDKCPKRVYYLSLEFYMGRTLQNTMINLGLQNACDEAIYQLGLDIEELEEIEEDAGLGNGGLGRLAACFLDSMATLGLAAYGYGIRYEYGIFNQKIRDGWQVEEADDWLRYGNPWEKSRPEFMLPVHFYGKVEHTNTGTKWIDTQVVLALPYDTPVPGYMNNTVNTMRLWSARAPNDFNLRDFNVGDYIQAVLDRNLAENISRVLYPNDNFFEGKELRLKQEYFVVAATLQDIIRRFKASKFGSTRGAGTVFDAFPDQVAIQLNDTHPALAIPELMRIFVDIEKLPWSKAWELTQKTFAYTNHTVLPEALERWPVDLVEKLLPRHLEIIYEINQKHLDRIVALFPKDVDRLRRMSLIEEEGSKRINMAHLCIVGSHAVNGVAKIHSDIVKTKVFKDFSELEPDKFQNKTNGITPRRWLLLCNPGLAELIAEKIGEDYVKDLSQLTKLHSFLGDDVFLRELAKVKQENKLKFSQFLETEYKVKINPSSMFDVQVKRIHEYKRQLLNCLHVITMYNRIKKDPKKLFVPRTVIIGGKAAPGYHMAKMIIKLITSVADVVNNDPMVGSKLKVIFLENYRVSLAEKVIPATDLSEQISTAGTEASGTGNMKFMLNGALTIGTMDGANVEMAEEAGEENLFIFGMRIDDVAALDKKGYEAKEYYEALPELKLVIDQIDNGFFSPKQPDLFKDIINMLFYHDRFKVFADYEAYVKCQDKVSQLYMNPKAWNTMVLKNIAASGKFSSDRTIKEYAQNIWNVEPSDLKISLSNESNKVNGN
Activity calls are given as the source filed them.
valueType: Kd

compound: CCN(CCCOc1ccc2c(Nc3cc(CC(=O)Nc4cccc(F)c4)n[nH]3)ncnc2c1)CCOP(=O)(O)O [BARASERTIB]
result: > 30 µM (inactive)
//
compound: O[C@H]1CC[C@H](Nc2ncc3nc(Nc4c(F)cc(F)cc4F)n([C@H]4CCOC4)c3n2)CC1 [TANZISERTIB]
result: > 30 µM (inactive)
//
compound: C#Cc1cccc(Nc2ncnc3cc4c(cc23)OCCOCCOCCO4)c1 [ICOTINIB]
result: > 30 µM (inactive)
//
compound: COc1cc(F)c(F)c(Nc2ccc(I)cc2F)c1NS(=O)(=O)C1(C[C@H](O)CO)CC1 [REFAMETINIB]
result: > 30 µM (inactive)

====

target: Glycogen synthase kinase-3 alpha (Homo sapiens, UniProt P49840); also: in the data inactive means no Kd found up to 30 µM
Sequence (P49840 whole entry): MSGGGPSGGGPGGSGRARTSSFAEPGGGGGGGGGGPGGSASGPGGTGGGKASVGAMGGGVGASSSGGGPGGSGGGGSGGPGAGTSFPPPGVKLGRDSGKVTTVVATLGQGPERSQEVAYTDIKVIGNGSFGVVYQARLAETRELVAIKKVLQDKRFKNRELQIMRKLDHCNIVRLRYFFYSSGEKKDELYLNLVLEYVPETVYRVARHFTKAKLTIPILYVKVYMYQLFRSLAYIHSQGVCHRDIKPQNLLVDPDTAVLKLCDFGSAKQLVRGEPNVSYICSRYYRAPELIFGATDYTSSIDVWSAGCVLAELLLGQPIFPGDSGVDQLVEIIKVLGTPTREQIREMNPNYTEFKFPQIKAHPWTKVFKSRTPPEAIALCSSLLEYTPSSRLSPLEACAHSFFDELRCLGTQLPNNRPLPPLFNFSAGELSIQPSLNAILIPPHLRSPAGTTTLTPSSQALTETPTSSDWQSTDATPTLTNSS
Active and inactive are the calls of the source.
Outcomes: 1 = active, 0 = inactive

recordSmiles: CNC(=O)c1ccc(Nc2ncc(C(F)(F)F)c(NCc3nccnc3N(C)S(C)(=O)=O)n2)cc1
className: 1

recordSmiles: FC(F)(F)c1ccc(CNc2ccc(Cc3c[nH]c4ncc(Cl)cc34)cn2)cn1
className: 0

recordSmiles: CN1CCN(c2nc(C3=C(c4c[nH]c5ccccc45)C(=O)NC3=O)c3ccccc3n2)CC1
className: 1

recordSmiles: CC(C)(O)CC(=O)NCCn1ccc2ncnc(Nc3ccc(Oc4cccc(C(F)(F)F)c4)c(Cl)c3)c21
className: 0

====

Biological target: MAP/microtubule affinity-regulating kinase 4 (Homo sapiens, UniProt Q96L34); also: in the data inactive means no Kd found up to 30 µM
Sequence (Q96L34 whole entry): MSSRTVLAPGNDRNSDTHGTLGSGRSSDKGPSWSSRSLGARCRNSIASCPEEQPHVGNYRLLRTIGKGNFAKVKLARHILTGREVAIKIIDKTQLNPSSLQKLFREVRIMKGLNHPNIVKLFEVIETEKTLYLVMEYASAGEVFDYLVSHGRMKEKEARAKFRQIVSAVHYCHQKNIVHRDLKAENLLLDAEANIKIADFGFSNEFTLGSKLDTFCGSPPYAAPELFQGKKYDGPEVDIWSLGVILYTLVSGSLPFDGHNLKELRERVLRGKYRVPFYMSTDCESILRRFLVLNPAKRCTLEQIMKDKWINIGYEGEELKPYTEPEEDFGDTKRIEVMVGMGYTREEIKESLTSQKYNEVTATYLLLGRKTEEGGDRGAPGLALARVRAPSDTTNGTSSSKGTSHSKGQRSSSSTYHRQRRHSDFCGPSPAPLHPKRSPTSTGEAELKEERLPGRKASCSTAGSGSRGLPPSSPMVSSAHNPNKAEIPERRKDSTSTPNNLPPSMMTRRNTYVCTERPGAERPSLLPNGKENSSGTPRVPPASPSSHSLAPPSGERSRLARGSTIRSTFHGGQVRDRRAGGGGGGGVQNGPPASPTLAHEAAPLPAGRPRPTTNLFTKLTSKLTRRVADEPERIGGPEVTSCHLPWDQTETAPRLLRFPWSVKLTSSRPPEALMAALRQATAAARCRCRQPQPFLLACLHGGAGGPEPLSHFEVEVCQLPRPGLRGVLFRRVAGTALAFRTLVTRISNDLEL
Activity calls are given as the source filed them.
Outcome codes: y (active), n (inactive)

compound: C=CCn1c(=O)c2cnc(Nc3ccc(N4CCN(C)CC4)cc3)nc2n1-c1cccc(C(C)(C)O)n1
system: MAP/microtubule affinity-regulating kinase 4 (Homo sapiens, UniProt Q96L34); also: in the data inactive means no Kd found up to 30 µM
className: n
--
compound: c1cc(OCCN2CCCCC2)cc(-c2n[nH]c3ccc(-c4nc[nH]n4)cc23)c1
system: MAP/microtubule affinity-regulating kinase 4 (Homo sapiens, UniProt Q96L34); also: in the data inactive means no Kd found up to 30 µM
className: n
--
compound: COc1cc(Nc2ncc(F)c(Nc3ccc4c(n3)N(COP(=O)(O)O)C(=O)C(C)(C)O4)n2)cc(OC)c1OC
system: MAP/microtubule affinity-regulating kinase 4 (Homo sapiens, UniProt Q96L34); also: in the data inactive means no Kd found up to 30 µM
className: n
--
compound: CC1(COc2ccc3c(c2)ncn3-c2ccc3cccc(N4CCC(N)CC4)c3n2)COC1
system: MAP/microtubule affinity-regulating kinase 4 (Homo sapiens, UniProt Q96L34); also: in the data inactive means no Kd found up to 30 µM
className: y
--
compound: C[C@@H]1COC(Nc2ccc3ncnc(Nc4ccc(OCc5nccs5)c(Cl)c4)c3c2)=N1
system: MAP/microtubule affinity-regulating kinase 4 (Homo sapiens, UniProt Q96L34); also: in the data inactive means no Kd found up to 30 µM
className: n
--
compound: Cc1c(Cn2c(C)nc3c(C(=O)O)cc(N4CCOCC4)cc32)cccc1C(F)(F)F
system: MAP/microtubule affinity-regulating kinase 4 (Homo sapiens, UniProt Q96L34); also: in the data inactive means no Kd found up to 30 µM
className: n
--
compound: CNC(=O)c1cc(COc2nnc(Nc3ccc(Cl)cc3)c3ccoc23)ccn1
system: MAP/microtubule affinity-regulating kinase 4 (Homo sapiens, UniProt Q96L34); also: in the data inactive means no Kd found up to 30 µM
className: n
--
compound: Cc1ccc(C(=O)Nc2ccc(Oc3cc4cnn(C)c4cc3-c3cn[nH]c3)c(F)c2)c(=O)n1-c1ccc(F)cc1
system: MAP/microtubule affinity-regulating kinase 4 (Homo sapiens, UniProt Q96L34); also: in the data inactive means no Kd found up to 30 µM
className: n
--
compound: COc1cc(F)c(F)c(Nc2ccc(I)cc2F)c1NS(=O)(=O)C1(C[C@H](O)CO)CC1
system: MAP/microtubule affinity-regulating kinase 4 (Homo sapiens, UniProt Q96L34); also: in the data inactive means no Kd found up to 30 µM
className: n
--
compound: CCOc1ccn(-c2ccc(F)cc2)c(=O)c1C(=O)Nc1ccc(Oc2ccnc(N)c2Cl)c(F)c1
system: MAP/microtubule affinity-regulating kinase 4 (Homo sapiens, UniProt Q96L34); also: in the data inactive means no Kd found up to 30 µM
className: n
--
compound: CCc1cc2c(cc1N1CCC(N3CCOCC3)CC1)C(C)(C)c1[nH]c3cc(C#N)ccc3c1C2=O
system: MAP/microtubule affinity-regulating kinase 4 (Homo sapiens, UniProt Q96L34); also: in the data inactive means no Kd found up to 30 µM
className: n
--
compound: COc1cc2ncnc(Nc3ccc(F)c(Cl)c3)c2cc1NC(=O)/C=C/CN1CCCCC1 [DACOMITINIB ANHYDROUS]
system: MAP/microtubule affinity-regulating kinase 4 (Homo sapiens, UniProt Q96L34); also: in the data inactive means no Kd found up to 30 µM
className: n
--
compound: CC(C)(O)CC(=O)NCCn1ccc2ncnc(Nc3ccc(Oc4cccc(C(F)(F)F)c4)c(Cl)c3)c21
system: MAP/microtubule affinity-regulating kinase 4 (Homo sapiens, UniProt Q96L34); also: in the data inactive means no Kd found up to 30 µM
className: n
--
compound: Cc1c(NC(=O)OC[C@@H]2COCCN2)cn2ncnc(Nc3ccc4c(cnn4Cc4cccc(F)c4)c3)c12
system: MAP/microtubule affinity-regulating kinase 4 (Homo sapiens, UniProt Q96L34); also: in the data inactive means no Kd found up to 30 µM
className: n
--
compound: CC(C)CC(=O)Nc1[nH]nc2c1CN(C(=O)C1CCN(C)CC1)C2(C)C
system: MAP/microtubule affinity-regulating kinase 4 (Homo sapiens, UniProt Q96L34); also: in the data inactive means no Kd found up to 30 µM
className: n
--
compound: Cc1cc(C(=O)Nc2cc(Oc3ccc4nc(NC(=O)C5CC5)cn4n3)ccc2C)n(C)n1
system: MAP/microtubule affinity-regulating kinase 4 (Homo sapiens, UniProt Q96L34); also: in the data inactive means no Kd found up to 30 µM
className: n
